What pIC50 was measured for each of the following?
- Tested on: KG-1 cell line (FGFR 1-fusion)
- testName: Cancer cell line cell viability assay (Cell Titer-Glo), 72 hr
- Assay type: cell-based
- conditionDescription: Homo sapiens, KG-1, KG-1 cell line (FGFR1-fusion)
pIC50: −log10 of the molar value.

I'm hoping you can list pIC50 for every compound here, please.
1. COc1cc2[nH]nc(-c3cnc(N4CC(N)(CC(C)(C)O)C4)c(C#N)c3)c2cc1O[C@H](C)c1c(Cl)cncc1Cl
2. C[C@@H](Oc1ccc2[nH]nc(-c3ccc(N4CC(N)(CCC#N)C4)nn3)c2c1)c1c(Cl)cncc1Cl
3. COc1cc2[nH]nc(-c3cnc(N4CC[C@@](C)(N)C4)c(C#N)c3)c2cc1O[C@H](C)c1c(Cl)cncc1Cl

Output:
1. 6.00 to 6.70
2. 7.30 to 10.00
3. 6.70 to 7.30

I'm hoping you can list pIC50 for every compound here, please.
1. C[C@@H](Oc1ccc2[nH]nc(-c3ccc(N4CC(N)(c5ccn(C)n5)C4)nn3)c2c1)c1c(Cl)cncc1Cl
2. C[C@@H](Oc1ccc2[nH]nc(-c3cnc(N4CC(C)(NCC(F)F)C4)c(C#N)c3)c2c1)c1c(Cl)cncc1Cl

Output:
["6.00 to 6.70", "6.00 to 6.70"]

I'm hoping you can list pIC50 for every compound here, please.
1. COc1cc2[nH]nc(-c3cnc(N4CC(C)(NCC(C)(C)O)C4)c(C#N)c3)c2cc1O[C@H](C)c1c(Cl)cncc1Cl
2. C[C@@H](Oc1ccc2[nH]nc(-c3ccc(N4CC(C)(OCCN5CCCC5)C4)nn3)c2c1)c1c(Cl)cncc1Cl
3. C[C@@H](Oc1ccc2[nH]nc(-c3cnc(N4CC(C)(NCCF)C4)c(F)c3)c2c1)c1c(Cl)cncc1Cl
4. COc1cc2[nH]nc(-c3cnc(N4CC5(CC5)C4)c(C#N)c3)c2cc1O[C@H](C)c1c(Cl)cncc1Cl
5. COc1cc2[nH]nc(-c3cnc(N4CC[C@](C)(N)C4)c(C#N)c3)c2cc1O[C@H](C)c1c(Cl)cncc1Cl
6. CCC1(N)CN(c2ncc(-c3n[nH]c4ccc(O[C@H](C)c5c(Cl)cncc5Cl)cc34)cc2F)C1
7. C[C@@H](Oc1ccc2[nH]nc(-c3ccc(N4CC(N)(C(=O)N(C)C)C4)nn3)c2c1)c1c(Cl)cncc1Cl

Output:
6.70 to 7.30
6.70 to 7.30
6.70 to 7.30
6.00 to 6.70
6.70 to 7.30
6.70 to 7.30
6.70 to 7.30

I'm hoping you can list pIC50 for every compound here, please.
1. COc1cc2[nH]nc(-c3cnc(N4CC(C)(NCC(C)(C)O)C4)c(F)c3)c2cc1O[C@H](C)c1c(Cl)cncc1Cl
2. C[C@@H](Oc1ccc2[nH]nc(-c3cnc(N4CC(N)(CC#N)C4)c(F)c3)c2c1)c1c(Cl)cncc1Cl

Output:
7.30 to 10.00
6.70 to 7.30
